Test system: intracellular forms of T. cruzi (Tulahuen strain)
Experiment: Activity against intracellular forms of T. cruzi (Tulahuen-β gal strain) in infected L929 cell lines, CPRG readout
Type: cell-based, Trypanosoma cruzi
Conditions: LC50 L929 / EC50 intracellular forms, 96 h; µM data
test_readout: SI (Selectivity Index), intracellular forms
Write the number on its own, no unit after it.

Observe how each entry below is paired with its result.
{"columns": ["compound", "measurement_target", "recorded_measurement"],
 "data": [
  ["COc1cc(/C=C/C(=O)N2CCC=CC2=O)cc(OC)c1OC", "intracellular forms of T. cruzi (Tulahuen strain)", 9],
  ["CC(=O)O[C@@H]1CC2C3CC=C4[C@@H](O)C=CC(=O)[C@]4(C)C3CC[C@]2(C)[C@@]1(O)[C@H](C)C1CC(C)=C(C)C(=O)O1 (stereo partly shown) [Compound 2, Aurelianolide B]", "intracellular forms of T. cruzi (Tulahuen strain)", 17.1]
]}

Next compound, please.
Bench note, intracellular forms of T. cruzi (Tulahuen strain): CC(=O)O[C@@H]1CC2C3C[C@H]4O[C@]45[C@@H](O)C=CC(=O)[C@]5(C)C3CC[C@]2(C)[C@@]1(O)[C@H](C)C1CC(C)=C(C)C(=O)O1 (stereo partly shown) [Compound 1, Aurelianolide A] , SI (Selectivity Index), intracellular forms reads 9.15

====

Test: Cardiotoxicity, primary cardiac cell cultures (PrestoBlue, light microscopy)
Type: cell-based
Conditions: Swiss Webster, mouse
// reported CC50 at 24 h per item
// return numeric value only (unit: µM, not printed)

Field CC50 at 24 h (entry CC(=O)O[C@@H]1CC2C3CC=C4[C@@H](O)C=CC(=O)[C@]4(C)C3CC[C@]2(C)[C@@]1(O)[C@H](C)C1CC(C)=C(C)C(=O)O1 (some centres unmarked) [Compound 2, Aurelianolide B] ) reads 30.9

Just so you know, measured CC50 at 24 h for CC(=O)O[C@@H]1CC2C3C[C@H]4O[C@]45[C@@H](O)C=CC(=O)[C@]5(C)C3CC[C@]2(C)[C@@]1(O)[C@H](C)C1CC(C)=C(C)C(=O)O1 (some centres unmarked) [Compound 1, Aurelianolide A] came out at 16.4

====

Assay: in vitro
Assay type: cell-based
Conditions: mouse
test_readout: CC50 at 96 h (µM)
Enter your answer as a number in µM; do not include the unit.

{"columns": ["compound", "test_readout", "recorded_measurement"],
 "data": [
  ["CC(=O)O[C@@H]1CC2C3CC=C4[C@@H](O)C=CC(=O)[C@]4(C)C3CC[C@]2(C)[C@@]1(O)[C@H](C)C1CC(C)=C(C)C(=O)O1 (some centres unmarked) [Compound 2, Aurelianolide B]", "CC50 at 96 h", 27.4]
]}

Could you now look at the following compound, please?
Quick note, CC50 at 96 h for CC(=O)O[C@@H]1CC2C3C[C@H]4O[C@]45[C@@H](O)C=CC(=O)[C@]5(C)C3CC[C@]2(C)[C@@]1(O)[C@H](C)C1CC(C)=C(C)C(=O)O1 (some centres unmarked) [Compound 1, Aurelianolide A] landed at 42.1
